targetEntity: SALL4 ZFC4 G921D (HT-SELEX) (Mus musculus, UniProt Q8BX22 870-940, G921D)
Sequence: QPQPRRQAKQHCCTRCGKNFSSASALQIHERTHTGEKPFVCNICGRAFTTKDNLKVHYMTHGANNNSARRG
assay: HT-SELEX; high values mean tight binding
runConditions: protein: recombinant; vector His6-GST; dsDNA, one strand shown

| sequenceData | targetEntity | binding signal / fold-change vs cycle 0 |
| --- | --- | --- |
| ACATCA | SALL4 ZFC4 G921D (HT-SELEX) (Mus musculus, UniProt Q8BX22 870-940, G921D) | 1.37 |
| CTGTCA | SALL4 ZFC4 G921D (HT-SELEX) (Mus musculus, UniProt Q8BX22 870-940, G921D) | 0.932 |
| AAACGG | SALL4 ZFC4 G921D (HT-SELEX) (Mus musculus, UniProt Q8BX22 870-940, G921D) | 0.713 |
| TCTCAA | SALL4 ZFC4 G921D (HT-SELEX) (Mus musculus, UniProt Q8BX22 870-940, G921D) | 1.34 |
| AACGCA | SALL4 ZFC4 G921D (HT-SELEX) (Mus musculus, UniProt Q8BX22 870-940, G921D) | 0.669 |
| AATGAC | SALL4 ZFC4 G921D (HT-SELEX) (Mus musculus, UniProt Q8BX22 870-940, G921D) | 1.3 |
| GGCAAA | SALL4 ZFC4 G921D (HT-SELEX) (Mus musculus, UniProt Q8BX22 870-940, G921D) | 0.604 |
| AAACAG | SALL4 ZFC4 G921D (HT-SELEX) (Mus musculus, UniProt Q8BX22 870-940, G921D) | 1.23 |
| AGACCG | SALL4 ZFC4 G921D (HT-SELEX) (Mus musculus, UniProt Q8BX22 870-940, G921D) | 0.525 |
| ACCTTC | SALL4 ZFC4 G921D (HT-SELEX) (Mus musculus, UniProt Q8BX22 870-940, G921D) | 1 |
| AGGGTC | SALL4 ZFC4 G921D (HT-SELEX) (Mus musculus, UniProt Q8BX22 870-940, G921D) | 0.649 |
| CGAAGA | SALL4 ZFC4 G921D (HT-SELEX) (Mus musculus, UniProt Q8BX22 870-940, G921D) | 0.859 |
| AAGACC | SALL4 ZFC4 G921D (HT-SELEX) (Mus musculus, UniProt Q8BX22 870-940, G921D) | 0.911 |
| TGGACA | SALL4 ZFC4 G921D (HT-SELEX) (Mus musculus, UniProt Q8BX22 870-940, G921D) | 0.847 |
| AAAGAG | SALL4 ZFC4 G921D (HT-SELEX) (Mus musculus, UniProt Q8BX22 870-940, G921D) | 1.33 |
| CCGCAC | SALL4 ZFC4 G921D (HT-SELEX) (Mus musculus, UniProt Q8BX22 870-940, G921D) | 0.22 |
| CTTTAA | SALL4 ZFC4 G921D (HT-SELEX) (Mus musculus, UniProt Q8BX22 870-940, G921D) | 1.69 |
| AAGGGG | SALL4 ZFC4 G921D (HT-SELEX) (Mus musculus, UniProt Q8BX22 870-940, G921D) | 0.657 |
| GTCTCA | SALL4 ZFC4 G921D (HT-SELEX) (Mus musculus, UniProt Q8BX22 870-940, G921D) | 0.938 |
| CAGGCC | SALL4 ZFC4 G921D (HT-SELEX) (Mus musculus, UniProt Q8BX22 870-940, G921D) | 0.277 |
| TGTAAA | SALL4 ZFC4 G921D (HT-SELEX) (Mus musculus, UniProt Q8BX22 870-940, G921D) | 1.7 |
| AACCAC | SALL4 ZFC4 G921D (HT-SELEX) (Mus musculus, UniProt Q8BX22 870-940, G921D) | 0.879 |
| AGCGTA | SALL4 ZFC4 G921D (HT-SELEX) (Mus musculus, UniProt Q8BX22 870-940, G921D) | 0.723 |
| AGTGAT | SALL4 ZFC4 G921D (HT-SELEX) (Mus musculus, UniProt Q8BX22 870-940, G921D) | 1.53 |
| GTTCCA | SALL4 ZFC4 G921D (HT-SELEX) (Mus musculus, UniProt Q8BX22 870-940, G921D) | 0.915 |
| CTACGA | SALL4 ZFC4 G921D (HT-SELEX) (Mus musculus, UniProt Q8BX22 870-940, G921D) | 0.827 |
| CACATC | SALL4 ZFC4 G921D (HT-SELEX) (Mus musculus, UniProt Q8BX22 870-940, G921D) | 0.929 |
| AAAGTT | SALL4 ZFC4 G921D (HT-SELEX) (Mus musculus, UniProt Q8BX22 870-940, G921D) | 1.7 |
| ATCGCC | SALL4 ZFC4 G921D (HT-SELEX) (Mus musculus, UniProt Q8BX22 870-940, G921D) | 0.401 |
| GCCAAA | SALL4 ZFC4 G921D (HT-SELEX) (Mus musculus, UniProt Q8BX22 870-940, G921D) | 0.545 |
| AAGCGG | SALL4 ZFC4 G921D (HT-SELEX) (Mus musculus, UniProt Q8BX22 870-940, G921D) | 0.396 |
| GTTGTA | SALL4 ZFC4 G921D (HT-SELEX) (Mus musculus, UniProt Q8BX22 870-940, G921D) | 1.28 |
| AAGCAT | SALL4 ZFC4 G921D (HT-SELEX) (Mus musculus, UniProt Q8BX22 870-940, G921D) | 1.27 |
| CTACTC | SALL4 ZFC4 G921D (HT-SELEX) (Mus musculus, UniProt Q8BX22 870-940, G921D) | 0.992 |
| GCAGCA | SALL4 ZFC4 G921D (HT-SELEX) (Mus musculus, UniProt Q8BX22 870-940, G921D) | 0.368 |
| CCGAGA | SALL4 ZFC4 G921D (HT-SELEX) (Mus musculus, UniProt Q8BX22 870-940, G921D) | 0.548 |
| GGCTTA | SALL4 ZFC4 G921D (HT-SELEX) (Mus musculus, UniProt Q8BX22 870-940, G921D) | 0.763 |
| GTAAAA | SALL4 ZFC4 G921D (HT-SELEX) (Mus musculus, UniProt Q8BX22 870-940, G921D) | 1.53 |
| ATTGCA | SALL4 ZFC4 G921D (HT-SELEX) (Mus musculus, UniProt Q8BX22 870-940, G921D) | 1.18 |
| CACAGA | SALL4 ZFC4 G921D (HT-SELEX) (Mus musculus, UniProt Q8BX22 870-940, G921D) | 0.848 |
| CGAACA | SALL4 ZFC4 G921D (HT-SELEX) (Mus musculus, UniProt Q8BX22 870-940, G921D) | 0.787 |
| AAGGCT | SALL4 ZFC4 G921D (HT-SELEX) (Mus musculus, UniProt Q8BX22 870-940, G921D) | 0.837 |
| ACCTCA | SALL4 ZFC4 G921D (HT-SELEX) (Mus musculus, UniProt Q8BX22 870-940, G921D) | 1.04 |
| CCTAGG | SALL4 ZFC4 G921D (HT-SELEX) (Mus musculus, UniProt Q8BX22 870-940, G921D) | 0.669 |
| CTAATC | SALL4 ZFC4 G921D (HT-SELEX) (Mus musculus, UniProt Q8BX22 870-940, G921D) | 1.43 |
| GACACC | SALL4 ZFC4 G921D (HT-SELEX) (Mus musculus, UniProt Q8BX22 870-940, G921D) | 0.593 |
| CCTCTC | SALL4 ZFC4 G921D (HT-SELEX) (Mus musculus, UniProt Q8BX22 870-940, G921D) | 0.687 |
| AAGTCC | SALL4 ZFC4 G921D (HT-SELEX) (Mus musculus, UniProt Q8BX22 870-940, G921D) | 0.936 |
| GCTAAC | SALL4 ZFC4 G921D (HT-SELEX) (Mus musculus, UniProt Q8BX22 870-940, G921D) | 0.89 |
| ACCAAT | SALL4 ZFC4 G921D (HT-SELEX) (Mus musculus, UniProt Q8BX22 870-940, G921D) | 1.33 |
| AGCAAA | SALL4 ZFC4 G921D (HT-SELEX) (Mus musculus, UniProt Q8BX22 870-940, G921D) | 1.07 |
| GGGAGA | SALL4 ZFC4 G921D (HT-SELEX) (Mus musculus, UniProt Q8BX22 870-940, G921D) | 0.638 |
| CCGCTC | SALL4 ZFC4 G921D (HT-SELEX) (Mus musculus, UniProt Q8BX22 870-940, G921D) | 0.273 |
| AGGCAG | SALL4 ZFC4 G921D (HT-SELEX) (Mus musculus, UniProt Q8BX22 870-940, G921D) | 0.484 |
| AGAAGC | SALL4 ZFC4 G921D (HT-SELEX) (Mus musculus, UniProt Q8BX22 870-940, G921D) | 0.845 |
| CCATGG | SALL4 ZFC4 G921D (HT-SELEX) (Mus musculus, UniProt Q8BX22 870-940, G921D) | 0.622 |
| CACTGA | SALL4 ZFC4 G921D (HT-SELEX) (Mus musculus, UniProt Q8BX22 870-940, G921D) | 0.949 |
| CTGGGC | SALL4 ZFC4 G921D (HT-SELEX) (Mus musculus, UniProt Q8BX22 870-940, G921D) | 0.273 |
| CAAGGG | SALL4 ZFC4 G921D (HT-SELEX) (Mus musculus, UniProt Q8BX22 870-940, G921D) | 0.665 |
| AGCGCT | SALL4 ZFC4 G921D (HT-SELEX) (Mus musculus, UniProt Q8BX22 870-940, G921D) | 0.343 |
| ATCATG | SALL4 ZFC4 G921D (HT-SELEX) (Mus musculus, UniProt Q8BX22 870-940, G921D) | 1.4 |
| AATCGC | SALL4 ZFC4 G921D (HT-SELEX) (Mus musculus, UniProt Q8BX22 870-940, G921D) | 0.628 |
| ACTAAA | SALL4 ZFC4 G921D (HT-SELEX) (Mus musculus, UniProt Q8BX22 870-940, G921D) | 1.69 |
| GCTCCA | SALL4 ZFC4 G921D (HT-SELEX) (Mus musculus, UniProt Q8BX22 870-940, G921D) | 0.505 |
| GTACAA | SALL4 ZFC4 G921D (HT-SELEX) (Mus musculus, UniProt Q8BX22 870-940, G921D) | 1.22 |
| CCAGAC | SALL4 ZFC4 G921D (HT-SELEX) (Mus musculus, UniProt Q8BX22 870-940, G921D) | 0.553 |
| ACGCGA | SALL4 ZFC4 G921D (HT-SELEX) (Mus musculus, UniProt Q8BX22 870-940, G921D) | 0.365 |
| GGTCTA | SALL4 ZFC4 G921D (HT-SELEX) (Mus musculus, UniProt Q8BX22 870-940, G921D) | 0.887 |
| AAATGT | SALL4 ZFC4 G921D (HT-SELEX) (Mus musculus, UniProt Q8BX22 870-940, G921D) | 1.58 |
| ATGCTG | SALL4 ZFC4 G921D (HT-SELEX) (Mus musculus, UniProt Q8BX22 870-940, G921D) | 0.801 |
| CCACCG | SALL4 ZFC4 G921D (HT-SELEX) (Mus musculus, UniProt Q8BX22 870-940, G921D) | 0.322 |
| AGTGTG | SALL4 ZFC4 G921D (HT-SELEX) (Mus musculus, UniProt Q8BX22 870-940, G921D) | 0.909 |
| TAACCA | SALL4 ZFC4 G921D (HT-SELEX) (Mus musculus, UniProt Q8BX22 870-940, G921D) | 1.37 |
| ATTGGA | SALL4 ZFC4 G921D (HT-SELEX) (Mus musculus, UniProt Q8BX22 870-940, G921D) | 1.33 |
